pKd: −log10 of the molar value.
Note to self: these compounds have pKd reported for Tyrosine-protein kinase ABL1 (Homo sapiens, UniProt P00519) in various publications.
quantity: pKd

| compoundString | quantity | valueMeasured |
| --- | --- | --- |
| COc1n[nH]c2ncc(-c3cn(-c4c(F)ccc(NS(=O)(=O)c5cccc(-c6ccccc6)c5)c4F)nn3)cc12 | pKd | 7.82 |

(a) CC[C@@](C)(Nc1ccnc(-c2c[nH]c3ncccc23)n1)C(=O)NCC(F)(F)F
(b) CN1CCN(Cc2cc(Cl)cc(C(=O)Nc3ccc(OC(F)(F)F)cc3)c2O)CC1
Would you mind telling me which has the lower recorded pKd between a and b ? Answer = label.
b
(b: 5.00, a: 6.07)
